pIC50 for assorted compounds
Tgt: Bifunctional dihydrofolate reductase-thymidylate synthase (Toxoplasma gondii, UniProt Q07422)
Sequence (Q07422 whole entry): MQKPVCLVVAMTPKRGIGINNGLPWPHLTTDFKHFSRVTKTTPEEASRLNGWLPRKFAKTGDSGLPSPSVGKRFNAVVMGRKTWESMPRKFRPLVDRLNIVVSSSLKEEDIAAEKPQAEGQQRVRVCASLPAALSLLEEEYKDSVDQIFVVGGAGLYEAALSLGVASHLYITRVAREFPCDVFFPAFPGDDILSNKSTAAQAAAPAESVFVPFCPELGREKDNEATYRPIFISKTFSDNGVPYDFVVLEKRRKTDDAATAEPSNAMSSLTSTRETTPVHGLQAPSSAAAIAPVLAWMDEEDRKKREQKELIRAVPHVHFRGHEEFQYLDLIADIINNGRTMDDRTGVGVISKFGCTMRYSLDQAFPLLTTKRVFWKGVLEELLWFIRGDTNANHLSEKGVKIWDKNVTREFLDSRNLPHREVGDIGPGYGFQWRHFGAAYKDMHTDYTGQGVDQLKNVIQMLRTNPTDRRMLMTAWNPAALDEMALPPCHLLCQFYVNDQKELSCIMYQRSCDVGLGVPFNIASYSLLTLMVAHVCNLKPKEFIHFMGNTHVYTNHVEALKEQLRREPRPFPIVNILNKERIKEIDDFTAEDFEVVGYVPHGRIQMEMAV
Keep it numeric: pIC50 is minus log10 of the concentration in mol/L.

Answered cases to consult:
[in] Looking for the measured pIC50 of `COc1ccc(C)cc1NCc1cnc2nc(N)nc(N)c2c1C` , can you help?
[out] 7.82

[in] Looking for the measured pIC50 of `COc1ccc(C(F)(F)F)cc1NCc1cnc2nc(N)nc(N)c2n1` , can you help?
[out] 4.97

[in] Looking for the measured pIC50 of `Cc1cccc(SCc2cnc3nc(N)nc(N)c3c2C)c1` , can you help?
[out] 7.19

[in] Looking for the measured pIC50 of `COc1ccc(C(F)(F)F)cc1N(C)Cc1cnc2nc(N)nc(N)c2c1C` , can you help?
[out] 7.42

Continuing:
[in] Looking for the measured pIC50 of `COc1cc(OC)cc(N(C)Cc2cnc3nc(N)nc(N)c3c2C)c1` , can you help?
[out] 8.40

[in] Looking for the measured pIC50 of `Cc1ccc(SCc2cnc3nc(N)nc(N)c3c2C)cc1` , can you help?
[out] 7.24

[in] Looking for the measured pIC50 of `COc1cc(NCc2cnc3nc(N)nc(N)c3c2C)cc(OC)c1` , can you help?
[out] 8.46

[in] Looking for the measured pIC50 of `Cc1c(CSc2ccc(Cl)cc2)cnc2nc(N)nc(N)c12` , can you help?
[out] 7.05

[in] Looking for the measured pIC50 of `Cc1c(CSc2ccccc2)cnc2nc(N)nc(N)c12` , can you help?
[out] 7.47
